- Test system: A498
- assay-info: NCI tumour cell line growth inhibition, 48 h
Active and inactive are the calls of the source. No stated cut-off is given here; in the data, active = GI50 up to about 1.1 µM and inactive = higher.
Reported GI50 by item:

{"columns": ["compound", "GI50"],
 "data": [
  ["CCCCCCCCC/C=C1\\CC(CO)(COC(=O)C2CCCCC2)OC1=O (stereo unspecified)", "22.1 µM (inactive)"]
]}

Tested on A498, the item C=C1C(=O)OC2/C=C(/C)C3CC(O)C(C)(CC(OC(=O)/C(C)=C/C)C12)O3 (stereo unspecified) showed GI50 equal to 10.4 µM (inactive)

The value of GI50 recorded for Cc1ccc([S+]([O-])c2cccs2)cc1 (stereo unspecified) when tested on A498 reads 38.1 µM (inactive)

The compound Cn1c(=O)nc2n(-c3cccc(Br)c3)c3ccccc3nc-2c1=O on A498: GI50 was 10.2 µM (inactive)

---

# Lookup of reported GI50 keyed by entry
- Tested on: HOP-92
- assay-info: NCI tumour cell line growth inhibition, 48 h
The source made the active and inactive calls. Rule as the data show it: active = GI50 up to about 1.1 µM and inactive = higher.

Below are worked cases with known answers.
{"columns": ["compound", "readout-kind", "reported-value"],
 "data": [
  ["CC(C)=CCC\\C(C)=C/C=C/C(C)=C\\C=C\\C(C)=C/C=C/C=C(C)\\C=C\\C=C(C)/C=C/C=C(/C)CCC=C(C)C", "GI50", "> 100 µM (inactive)"],
  ["NC(=O)N/N=C(\\Cc1cc(=O)oc2cc(O)ccc12)C(=O)Nc1ccccc1C(N)=O", "GI50", "> 100 µM (inactive)"],
  ["COC(=O)C(CBr)CBr", "GI50", "1.79 µM (inactive)"],
  ["CCCCCCCCC/C=C1\\CC(CO)(COC(=O)C2CCCCC2)OC1=O (configuration not stated)", "GI50", "8.17 µM (inactive)"]
]}

Reported GI50 for COC(=O)c1nc(Cl)nc(Cl)c1Cl was 19.4 µM (inactive)

Field GI50 (entry O=C(NCCC1CN(C(=O)OCc2ccccc2)c2ccccc21)OCc1ccccc1 (configuration not stated) ) reads > 100 µM (inactive)

Just so you know, measured GI50 for ClCCN1CCC2(CC1)SSC1(CCN(CCCl)CC1)S2 came out at 1.79 µM (inactive)

Entry NC(=O)N1N=C2c3ccccc3OC[C@H]2[C@@H]1c1ccccc1 , GI50 reported as 13.8 µM (inactive)

---

- Tested on: NCI/ADR-RES
- assay-info: NCI tumour cell line growth inhibition, 48 h
Active and inactive are the calls of the source. No stated cut-off is given here; in the data, active = GI50 up to about 1.1 µM and inactive = higher.
readout-kind: GI50

{"columns": ["compound", "system-name", "GI50"],
 "data": [
  ["CC(=O)Oc1ccc2c(c1)CC[C@@H]1C2[C@@H](O[N+](=O)[O-])C[C@@]2(C)C1CC[C@@H]2O[N+](=O)[O-] (stereo not given in full)", "NCI/ADR-RES", "14.3 µM (inactive)"],
  ["N#Cc1cc2c(n(C3OC(CO)C(O)C(O)C3O)c1=S)CCCCC2 (stereo not given)", "NCI/ADR-RES", "> 100 µM (inactive)"],
  ["C=CC1(NC(=O)c2ccccc2)CCC(C(C)(C)C)CC1 (stereo not given)", "NCI/ADR-RES", "19.6 µM (inactive)"]
]}

// GI50 value for CSCSCC(N)CO.Cc1[nH]c(=O)[nH]c(=O)c1/C=C/C(=O)O : > 625 µM (inactive)

The compound listed as CCOC(=O)c1ccc(Nc2cnc3cc(C(F)(F)F)ccc3n2)cc1 shows GI50 equal to > 100 µM (inactive)

Source: ChEMBL document CHEMBL1201862
